OD450 nm by entry:
# Target or test system: T1, monkey GPC3-His protein (monkey)
# T1 construct: Bought protein; also called monkey GPC3 protein
# Experiment summary: ELISA, monkey GPC3-His coated; antibody 0.002 nM

Binder	OD450 nm
hAb006LH3L1c (antibody, human IgG1, V domains shown, Humanized F3.38.7, H3+L1c) VH: EVQLVQSGAEVKKPGSSVKVSCKASGYTFTDYEIHWVRQAPGQGLEWMGAIDPKTGNTAYNQKFMGRVTLTADKSTSTAYMELSSLRSEDTAVYYCTRYFSFAYWGQGTLVTVSS VL: DIVMTQTPLSLPVTPGEPASISCRSSQTFVHSNRNTYLQWYLQKPGQSPQLLIYKVSNRFSGVPDRFSGSGSGTDFTLKISRVEAEDVGVYYCFQGSHVPYTFGQGTKLEIK	0.122
hAb007LH1L1d (antibody, human IgG1, V domains shown, Humanized F3.81.19, H1+L1d) VH: EVQLVQSGAEVKKPGSSVKVSCKASGYTFSDYEMHWVRQAPGQGLEWMGTIDPETGNTAYNQKFKGRVTITADKSTSTAYMELSSLRSEDTAVYYCTRPYSLTYWGQGTLVTVSS VL: DIVMTQTPLSLPVTPGEPASISCRSSQSFVHSNSDTYLQWYLQKPGQSPQLLIYKVSNRFSGVPDRFSGSGSGTDFTLKISRVEAEDVGVYYCFQGSHVPYTFGQGTKLEIK	0.078
hAb007LH1L1c (antibody, human IgG1, V domains shown, Humanized F3.81.19, H1+L1c) VH: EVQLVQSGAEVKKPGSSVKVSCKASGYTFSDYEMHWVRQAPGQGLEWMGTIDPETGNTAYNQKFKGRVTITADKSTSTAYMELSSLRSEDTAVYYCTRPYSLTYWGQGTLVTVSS VL: DIVMTQTPLSLPVTPGEPASISCRSSQSFVHSNADTYLQWYLQKPGQSPQLLIYKVSNRFSGVPDRFSGSGSGTDFTLKISRVEAEDVGVYYCFQGSHVPYTFGQGTKLEIK	0.069
hAb006LH3L1e (antibody, human IgG1, V domains shown, Humanized F3.38.7, H3+L1e) VH: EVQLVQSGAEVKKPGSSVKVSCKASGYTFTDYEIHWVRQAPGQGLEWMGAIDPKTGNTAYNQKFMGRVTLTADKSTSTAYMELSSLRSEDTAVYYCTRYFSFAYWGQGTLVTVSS VL: DIVMTQTPLSLPVTPGEPASISCRSSQTFVHSNVNTYLQWYLQKPGQSPQLLIYKVSNRFSGVPDRFSGSGSGTDFTLKISRVEAEDVGVYYCFQGSHVPYTFGQGTKLEIK	0.114
hAb007LH1L1e (antibody, human IgG1, V domains shown, Humanized F3.81.19, H1+L1e) VH: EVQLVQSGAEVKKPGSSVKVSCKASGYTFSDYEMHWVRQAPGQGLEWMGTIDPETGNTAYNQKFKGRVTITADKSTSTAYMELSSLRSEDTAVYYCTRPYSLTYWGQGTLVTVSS VL: DIVMTQTPLSLPVTPGEPASISCRSSQSFVHSNVDTYLQWYLQKPGQSPQLLIYKVSNRFSGVPDRFSGSGSGTDFTLKISRVEAEDVGVYYCFQGSHVPYTFGQGTKLEIK	0.148
hAb006LH3L1d (antibody, human IgG1, V domains shown, Humanized F3.38.7, H3+L1d) VH: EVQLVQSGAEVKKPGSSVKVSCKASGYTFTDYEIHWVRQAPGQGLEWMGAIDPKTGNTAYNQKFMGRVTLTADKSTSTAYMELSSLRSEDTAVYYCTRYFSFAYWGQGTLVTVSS VL: DIVMTQTPLSLPVTPGEPASISCRSSQTFVHSNSNTYLQWYLQKPGQSPQLLIYKVSNRFSGVPDRFSGSGSGTDFTLKISRVEAEDVGVYYCFQGSHVPYTFGQGTKLEIK	0.121
